- experimentalSystem: human IBAT (Homo sapiens)
- Construct: expressed in transfected cells; host or cells: Baby hamster kidney (BHK) cells, clone H14
- Sequence (Q12908 whole entry): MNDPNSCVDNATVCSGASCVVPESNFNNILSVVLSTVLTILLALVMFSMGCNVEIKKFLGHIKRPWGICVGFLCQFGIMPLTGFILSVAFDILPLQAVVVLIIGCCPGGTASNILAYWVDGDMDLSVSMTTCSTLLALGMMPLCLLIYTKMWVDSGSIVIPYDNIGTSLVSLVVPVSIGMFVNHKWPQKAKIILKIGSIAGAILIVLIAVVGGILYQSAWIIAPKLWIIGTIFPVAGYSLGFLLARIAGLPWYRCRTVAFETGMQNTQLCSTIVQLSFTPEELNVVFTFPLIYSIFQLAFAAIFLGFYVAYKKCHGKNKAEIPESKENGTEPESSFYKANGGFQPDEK
- testSummary: In vitro assay of IBAT-mediated uptake of [14C]-taurocholate (TC) in H14 cells
- Type: cell-based
- setupConditions: read-out: Human TC IC50
# IC50 per entry
// units = nM; emit number, no label

Take a look at these entries with their results.
{"molecule": "CCCCC1(CCCC)CS(=O)(=O)c2ccc(N(C)C)cc2C(c2cccc(OCCOCCOCC[n+]3ccccn3)c2)C1O (centres unmarked) [Example 1008]", "IC50 [nM]": 1}
{"molecule": "CCCCC1(CCCC)CS(=O)(=O)c2ccc(N(C)C)cc2C(c2ccc(OC)c(F)c2)C1O (centres unmarked) [Example 1347]", "IC50 [nM]": 3.6}
{"molecule": "CCCCC1(CCCC)CS(=O)(=O)c2ccc(N(C)C)cc2C(c2ccc(C[N+](C)(C)CCO)cc2)C1O (centres unmarked) [Example 1249]", "IC50 [nM]": 10200}
{"molecule": "CCCCC1(CCCC)CS(=O)(=O)c2ccc(N(C)C)cc2C(c2cccc(OCCOCCOCC[N+](CCOCCOC)(CCOCCOC)CCOCCOC)c2)C1O (centres unmarked) [Example 1065]", "IC50 [nM]": 4}
{"molecule": "CCCCC1(CCCC)CS(=O)(=O)c2ccc(N(C)C)cc2C(c2ccc(F)c(F)c2)C1O (centres unmarked) [Example 1139]", "IC50 [nM]": 22}
{"molecule": "CCCCC1(CCCC)CS(=O)(=O)c2ccc(N(C)C)cc2C(c2ccc(O)c(Cl)c2)C1O (centres unmarked) [Example 1229]", "IC50 [nM]": 49}

The reported value for CCCCC1(CCCC)CS(=O)(=O)c2ccc(N(C)C)cc2C(c2ccc(OCCOCC[N+](CC)(CC)CC)c(F)c2)C1O (centres unmarked) [Example 1044] in terms of IC50 is 3

The reported value for CCCCC1(CCCC)CS(=O)(=O)c2ccc(N(C)C)cc2C(c2cccc(OCCOCCOCC[N+](C)(C)c3ccccc3)c2)C1O (centres unmarked) [Example 1092] in terms of IC50 is 6

The reported value for CCCCC1(CCCC)CS(=O)(=O)c2ccc(O)cc2C(c2cccc(N(C)C)c2)C1O (centres unmarked) [Example 1192] in terms of IC50 is 1000

The reported value for CCCCC1(CC)CS(=O)(=O)c2ccc(S(C)(=O)=O)cc2C(c2cccc(OC)c2)C1O (centres unmarked) [Example 1175] in terms of IC50 is 170

The reported value for CCCCC1(CCCC)CS(=O)(=O)c2ccc(N(C)C)cc2C(c2ccc(OC)c(F)c2)C1O (single isomer, unassigned) [Example 1143] in terms of IC50 is 27

The reported value for CCCCC1(CC)CS(=O)(=O)c2ccc([N+](C)(C)C)cc2C(c2ccc(OC)c(F)c2)C1O (centres unmarked) [Example 1282] in terms of IC50 is 170

The reported value for CCCCC1(CCCC)CS(=O)(=O)c2ccc([N+](C)(C)C)cc2C(c2ccc(OC)c(F)c2)C1O (centres unmarked) [Example 1165] in terms of IC50 is 110

The reported value for CCCCC1(CCCC)CS(=O)(=O)c2ccc(NC(C)(C)C)cc2C(c2cccc(OC)c2)C1O (centres unmarked) [Example 1304] in terms of IC50 is 250
